Assign cytotoxicity at 70.5 h to each entry below.
test: Human HepG2 cell viability assay in 384 well format; assay type: toxicity, cell-based; set-up: dose 125 nL, time 70.5 hour; concentration not given beside the values; settings: HepG2 cells, read-out: Inhibition
Only the number, expressed in %, is required.

[Q] Using the record for O=C1CC(N(C(=O)c2ccc3[nH]c4c(c3c2)CCCC4)C2CC2)C(=O)N1 (stereo unspecified) , state its measured cytotoxicity at 70.5 h.
[A] 39.1

[Q] Supply recorded cytotoxicity at 70.5 h for "O=S(=O)(NCC1CCN(c2cnccn2)CC1)c1cccs1" here.
[A] 5.13

[Q] For the compound "NC(=O)CN1CCC(NC(=O)COc2ccc(Cl)c(Cl)c2)CC1" , give its measured cytotoxicity at 70.5 h value.
[A] -2.35

[Q] Provide cytotoxicity at 70.5 h value for the following compound: Cc1ccc(N2CCCC3(COCCN(c4nccs4)C3)C2)nn1 (stereo unspecified)
[A] -9.95

[Q] # return recorded cytotoxicity at 70.5 h for input "CCN(CC)C(=O)CN1CCc2c(nc(C3CCNCC3)nc2NC)C1"
[A] -8.61

[Q] Provide only the value of recorded cytotoxicity at 70.5 h for O=C1CCNC(=O)N1CC(=O)N1CCC1c1ccc(F)cc1 (stereo unspecified)
[A] -10.7

[Q] Input Cn1cccc1C(=O)NC(C)(C(N)=O)c1cccc(C(F)(F)F)c1 (stereo unspecified) , output reported cytotoxicity at 70.5 h.
[A] -55.1

[Q] Determine its reported cytotoxicity at 70.5 h: CC(Cn1cccn1)NCc1csc(-c2ncccn2)n1 (stereo unspecified)
[A] 3.56

[Q] Provide measured cytotoxicity at 70.5 h value, entry: "CNC(=O)[C@@]12CCCN(c3ncccn3)[C@@H]1CN(C)C2"
[A] 29.8

[Q] Report cytotoxicity at 70.5 h, nothing else, for this compound: "CSc1ccc(NS(=O)(=O)c2cnn(C)c2)cn1"
[A] -1.76

[Q] Return the recorded cytotoxicity at 70.5 h value; entry: "CC1(C)[C@H](Cc2cc(CN3CCOCC3)on2)C[C@@H]1NC(=O)C1CCC1"
[A] 11.5

====

I'd be grateful if you could share measured cytotoxicity at 70.5 h for these entries.
assay: Human HepG2 cell viability assay in 384 well format; assay type: toxicity, cell-based; set-up: dose 125 nL, time 70.5 hour; concentration not given beside the values; conditions: HepG2 cells, read-out: Inhibition
Reply with just the number (in %).

[Q] Output measured cytotoxicity at 70.5 h for this item: Cc1nn(CCC(=O)N2CCCC(OCc3cccnc3)C2)c(C)c1C (configuration not stated)
[A] -6.47

[Q] Assign cytotoxicity at 70.5 h to the following record: "Cc1ccc(-n2nnc(C(=O)NCCS(N)(=O)=O)c2C2CC2)cc1"
[A] -18.3

[Q] Please list cytotoxicity at 70.5 h recorded for the molecule "CN(C)c1cc(C(=O)N2CCN(c3cnccn3)CC2)ccn1"
[A] -13.9

[Q] Given the molecule "O=C(Cn1cccn1)N1CCC(Oc2ccc(C(F)(F)F)cn2)CC1" , write its reported cytotoxicity at 70.5 h.
[A] -0.904

[Q] # return recorded cytotoxicity at 70.5 h for entry "O=C([C@H]1CCCO1)N1CC[C@H](O)[C@@H]1Cc1cccnc1"
[A] -4.15

[Q] Give reported cytotoxicity at 70.5 h value for "O=C(NCc1cccnc1)c1cn(CCc2ccccc2)nn1"
[A] 14

[Q] State, in one line, measured cytotoxicity at 70.5 h of "CCc1noc(CNc2c(F)cccc2-n2cccn2)n1"
[A] -8.2

[Q] Please report the measured cytotoxicity at 70.5 h for "COc1cc(C)nc(N2CCN(C(=O)CCn3cc(C)cn3)CC2)n1"
[A] -0.584

[Q] Name the recorded cytotoxicity at 70.5 h of the molecule listed here: "O=C(CCn1cccn1)NCCOc1ncc(Cl)cc1Cl"
[A] -10.6

[Q] For "COc1cccc(-c2n[nH]c3c2CN(C(=O)C2=C(C)OCCO2)CC3)c1" , write its cytotoxicity at 70.5 h.
[A] -4.06

[Q] Give cytotoxicity at 70.5 h for "Cc1cccc(=O)n1CCC(=O)N1CC[C@@](O)(C2CCC2)[C@H](C)C1"
[A] -9.83

[Q] Tell me its cytotoxicity at 70.5 h given "Cc1cccc(CN2CCc3nnc(CO)n3CC2)n1" as the entry.
[A] -3.1

[Q] Specify cytotoxicity at 70.5 h for "COc1ccc(CNC(=O)c2nc3c(s2)CCN(C(C)=O)CC3)cc1" and stop.
[A] -11.1

[Q] Return cytotoxicity at 70.5 h for the following molecule: CCC(CO)N(Cc1ccccn1)C(=O)c1ccc(C)c(Cl)c1 (configuration not stated)
[A] -5.65

[Q] Write down cytotoxicity at 70.5 h measured for item CN(C)S(=O)(=O)N1CCOC(c2cccc(-c3cncnc3)n2)C1 (configuration not stated)
[A] -10.8

[Q] Complete the entry with cytotoxicity at 70.5 h for Cc1ccc(C(C(=O)N2CCN(C(=O)c3ccc[nH]3)CC2)N(C)C)cc1 (configuration not stated)
[A] -3.84

[Q] Please indicate cytotoxicity at 70.5 h recorded for CN(C)Cc1cnc(C2CCN(C(=O)c3cccc(F)c3)C2)[nH]1 (configuration not stated)
[A] 20.2

[Q] Determine from records and report cytotoxicity at 70.5 h for "COCCN1C[C@H]2CN(Cc3cccc(OC(F)(F)F)c3)CCN2C1=O"
[A] -7.08

[Q] Tell me cytotoxicity at 70.5 h reported for Cc1nn2cccnc2c1C(=O)N1CCCC(n2ccnc2C)C1 (configuration not stated)
[A] -4.03

[Q] Identify cytotoxicity at 70.5 h associated with the molecule "Cc1ncsc1CCC(=O)N1CCCC[C@H](N(C)C)C1"
[A] 16.9

[Q] Using known records, supply cytotoxicity at 70.5 h for CC(C)C(=O)N1CCCC1C(=O)Nc1ccc(F)c(F)c1 (configuration not stated)
[A] -14.3

[Q] Given "CCCN(CCC)S(=O)(=O)N(C)Cc1ccncc1" , respond with its cytotoxicity at 70.5 h.
[A] -12.4

[Q] Give me measured cytotoxicity at 70.5 h, please, for this molecule: "CC(C)[C@H]1CN(Cc2ccccn2)C[C@@H]1NC(=O)CC1CCC1"
[A] -3.45

[Q] Give cytotoxicity at 70.5 h for the following molecule: "CCN1C[C@H]2[C@@H](C1)N(S(=O)(=O)c1ccccc1F)CC[C@H]2OC"
[A] -3.89

[Q] In one line, give reported cytotoxicity at 70.5 h of the entry Cc1ccc2c(c1)OC1(NC2=O)C(=O)N(C)c2ccccc21 (configuration not stated) .
[A] 16.7

[Q] Quote cytotoxicity at 70.5 h reported for CSc1ccccc1C(=O)C1CCCN(Cc2cc(C(C)C)[nH]n2)C1 (configuration not stated) please.
[A] -6.68

[Q] State, in one line, measured cytotoxicity at 70.5 h of COc1ccccc1C1=NOC(CC2(C(=O)NC(C)C)CCOCC2)C1 (configuration not stated)
[A] -4.53

[Q] # return recorded cytotoxicity at 70.5 h for entry Cc1nnc(SC2CCc3ccccc3NC2=O)o1 (configuration not stated)
[A] -16.3

[Q] Name the recorded cytotoxicity at 70.5 h of the molecule listed here: O=C(c1cnc(-c2cnccn2)s1)N1CCCC(n2cccn2)C1 (configuration not stated)
[A] -6.04

[Q] Hello, please tell me recorded cytotoxicity at 70.5 h for this one: O=C(CCc1ccccc1)C1CCCN(C(=O)c2ncc(F)cc2F)C1 (configuration not stated)
[A] -3.9

[Q] Using the record for "NC(=O)CCN(CC(=O)NCc1cccs1)c1ccc(F)cc1" , state its measured cytotoxicity at 70.5 h.
[A] -6.81

[Q] For the molecule Cc1[nH]ccc1C(=O)NCC1CC(=O)N(CCc2ccccc2)C1 (configuration not stated) , give its measured cytotoxicity at 70.5 h value.
[A] -3.09

[Q] Give me measured cytotoxicity at 70.5 h, please, for this molecule: "Cc1ccc([C@@H]2CN(S(=O)(=O)c3cc(C)ccc3F)C[C@H]2N(C)C)cc1"
[A] -8.32

[Q] Supply measured cytotoxicity at 70.5 h of COc1ccc(C2(CNC(C)c3nnc(C)o3)CCCCC2)cc1 (configuration not stated) in your reply.
[A] -8.26

[Q] Identify measured cytotoxicity at 70.5 h corresponding to "CC(C)C(=O)Nc1ncn(Cc2cccc(Br)c2)n1"
[A] -9.36

[Q] Please indicate cytotoxicity at 70.5 h recorded for "CC(C)c1nsc(N2CCSCC2)n1"
[A] -22.2

[Q] Give the reported cytotoxicity at 70.5 h for this molecule. "CC(C)C(=O)NS(=O)(=O)c1ccc2c(c1)N(C)CCC2"
[A] -8.04

[Q] Look up cytotoxicity at 70.5 h of "CC(=O)N1CCCN(C(=O)c2ccc(Cn3ccccc3=O)o2)CC1" and report it.
[A] 2.33

[Q] Check the records and state cytotoxicity at 70.5 h for Cn1cccc1CCC(=O)N1CCC2(CC1)c1ccccc1CC2O (configuration not stated)
[A] -12.2

[Q] Write down cytotoxicity at 70.5 h measured for item CCCn1cnnc1CNC(=O)C1COc2c(cccc2OC)C1 (configuration not stated)
[A] -11.4

[Q] Please look at this molecule and report its cytotoxicity at 70.5 h: "Cc1ccc(CN2CC[C@H](c3nc4cccc(C(N)=O)c4[nH]3)C2)cc1"
[A] 31.1

[Q] Recall and state the measured cytotoxicity at 70.5 h for "CS(=O)(=O)N1CCC(c2nccn2Cc2ccccn2)CC1" .
[A] -5.19

[Q] Kindly indicate its recorded cytotoxicity at 70.5 h. Item: CC1CN(C(=O)NCCc2nc(C(C)C)no2)CCO1 (configuration not stated)
[A] 10.3

[Q] Input "Cn1cc(C(=O)N2CCN(Cc3ccsc3)CC2)cn1" , output reported cytotoxicity at 70.5 h.
[A] 14.2

[Q] Output cytotoxicity at 70.5 h of CCC(C)C(=O)NCc1cccc(OCCN(C)C2CCOCC2)c1 (configuration not stated)
[A] 16.4

[Q] Please look at this molecule and report its cytotoxicity at 70.5 h: c1csc(-c2noc(C3CCCNC3)n2)c1 (configuration not stated)
[A] -16.5

[Q] Identify cytotoxicity at 70.5 h associated with the molecule "COc1ccc(C(=O)NCCN2CCC(c3cccs3)CC2)cc1OC"
[A] 0.337
